This collection of values is drawn from patent US20060052600A1.

Attribute: MIC, C: Staphylococcus intermedius #2357
Test system: Staphylococcus intermedius #2357 (clinical isolate)
Assay: MIC determination in broth microdilution assay
I only need the number, in µM, no unit after it.

CCCCN(CCCC)c1ccc(/C=C/C(=O)c2ccccc2CN(C)C)cc1 ... 9.4
C=CC(C)(C)c1cc(/C=C/C(=O)c2ccc(O)cc2)c(OC)cc1O [LicA, Licochalcone A, reference compound] ... 37.5
C=CC(C)(C)c1cc(/C=C/C(=O)c2ccccc2CN2CCN(C)CC2)c(OC)cc1Cl ... 18.8

Query: Requested field: MIC, C: Staphylococcus intermedius #2357. Item: `COc1ccc(-c2ccccc2)cc1/C=C/C(=O)c1ccc(CCN(C)C)cc1`
Reply: 9.4

Query: Requested field: MIC, C: Staphylococcus intermedius #2357. Item: `C=CC(C)(C)c1cc(/C=C/C(=O)c2cccc(CN(C)C)c2)c(OC)cc1O`
Reply: 9.4

###

Tested on: L. major promastigotes
Assay: Leishmania promastigote assay
Conditions: Leishmania major, read-out: IC50, effect on L. major
PROPERTY_NAME: pIC50
Worth noting: pIC50 values are minus log10 of concentrations stated in mol/L.

Query: Requested field: pIC50. Item: COc1ccc(C(=O)/C=C/c2ccccc2)cc1 [4′MC, 4′methoxy chalcone, reference compound]
Reply: 5.25

###

Tested on: Staphylococcus intermedius #2357 (clinical isolate)
Assay: MIC determination in broth microdilution assay
PROPERTY_NAME: MIC, C: Staphylococcus intermedius #2357 (µM)
I only need the number, in µM, no unit after it.

Below, 4 compounds whose answers are already recorded.
CN(C)CCCNCc1cccc(C(=O)/C=C/c2ccc(Cl)cc2Cl)c1 [A022] ... 37.5
CCCCN(CCCC)c1ccc(/C=C/C(=O)c2cccc(CN(C)C)c2)cc1 [A019] ... 9.4
CCCCN(CCCC)c1cccc(/C=C/C(=O)c2ccc(OC)c(CN(C)C)c2)c1 [A129] ... 9.4
CCCCN(CCCC)c1ccc(/C=C/C(=O)c2ccc(CN(C)C)cc2)cc1 [A033] ... 4.7

// moving on: another record for MIC, C: Staphylococcus intermedius #2357
Query: Requested field: MIC, C: Staphylococcus intermedius #2357. Item: CCCCN(CCCC)c1ccc(/C=C/C(=O)c2ccc(CN3CCN(C)CC3)cc2)cc1 [A025]
Reply: 9.4

###

Test system: Plasmodium falciparum 7G8(Cq-res)
Test: Plasmodium falciparum assay, resistant strain
Format: cell-based
Conditions: 7G8, read-out: Plasmodium falciparum IC50, 7G8(Cq-res)
PROPERTY_NAME: IC50 (µM)
I only need the number, in µM, no unit after it.

Query: Requested field: IC50. Item: CCN(CC)CCCC(C)Nc1ccnc2cc(Cl)ccc12 (stereo not shown)
Reply: 1.09

###

Assay: Determination of solubility
Format: physicochemical
Conditions: 0.3 M phosphate buffer, 24 hours
PROPERTY_NAME: Solubility in aqueous buffer at pH 7.4 (mg/ml)
I only need the number, in mg/ml, no unit after it.

Below, 2 compounds whose answers are already recorded.
COc1ccc(OC)c(/C=C/C(=O)c2ccccc2CN2CCNCC2)c1 ... 6.3
COc1ccc(C(=O)/C=C/c2cccc(CN3CCN(C)CC3)c2)cc1 ... 31.2

Query: Requested field: Solubility in aqueous buffer at pH 7.4. Item: `CN(C)Cc1cccc(/C=C/C(=O)c2ccccc2CN(C)C)c1`
Reply: 7.4

Query: Requested field: Solubility in aqueous buffer at pH 7.4. Item: `COc1ccc(C(=O)/C=C/c2cccc(CNCCN(C)C)c2)cc1`
Reply: 33.4

Query: Requested field: Solubility in aqueous buffer at pH 7.4. Item: `COc1ccc(C(=O)/C=C/c2ccc(OC)c(CN(C)C)c2)cc1`
Reply: 8.9

###

Test system: Plasmodium falciparum 3D7
Assay: Plasmodium falciparum assay
Assay type: cell-based
Conditions: Plasmodium falciparum, 3D7, read-out: Plasmodium falciparum IC50, 3D7(Cq-sen)
PROPERTY_NAME: IC50 (nM)
I only need the number, in nM, no unit after it.

Query: Requested field: IC50. Item: CCN(CC)CCCC(C)Nc1ccnc2cc(Cl)ccc12 (stereo not shown)
Reply: 130

###

Attribute: Inhibition of DHODH
Test system: DHODH (dihydroorotate dehydrogenase)
Assay: DHODH assay
Assay type: biochemical
Conditions: test concentration not given

Below, 3 compounds whose answers are already recorded.
CN(C)CCCNCc1cccc(C(=O)/C=C/c2ccc(Cl)cc2Cl)c1 ... 28%
CN(C)Cc1cccc(C(=O)/C=C/c2ccc(Cl)cc2Cl)c1 ... 23%
CCCCN(CCCC)c1ccc(/C=C/C(=O)c2ccc(CN3CCN(C)CC3)cc2)cc1 ... 26%

Query: Requested field: Inhibition of DHODH. Item: `CN1CCN(Cc2cccc(C(=O)/C=C/c3ccc(Cl)cc3Cl)c2)CC1`
Reply: 27%

Query: Requested field: Inhibition of DHODH. Item: `CCN(CC)Cc1ccccc1C(=O)/C=C/c1ccc(Cl)cc1Cl`
Reply: 20%

Query: Requested field: Inhibition of DHODH. Item: `CN(Cc1ccccc1C(=O)/C=C/c1ccc(Cl)cc1Cl)C(C)(C)C`
Reply: 26%

Query: Requested field: Inhibition of DHODH. Item: C=CC(C)(C)c1cc(/C=C/C(=O)c2ccc(O)cc2)c(OC)cc1O [LicA, Licochalcone A, reference compound]
Reply: 25%

Query: Requested field: Inhibition of DHODH. Item: COc1ccc(C(=O)/C=C/c2ccccc2)cc1 [4′MC, 4′methoxy chalcone, reference compound]
Reply: 7%

Query: Requested field: Inhibition of DHODH. Item: `CN(C)CCN(C)Cc1ccccc1C(=O)/C=C/c1ccc(Cl)cc1Cl`
Reply: 22%

###

System: Plasmodium falciparum 3D7
Assay: Plasmodium falciparum assay
Format: cell-based
Conditions: Plasmodium falciparum, 3D7; Table 2; read-out: IC50, activity against Plasmodium falciparum 3D7
PROPERTY_NAME: pIC50
Worth noting: pIC50 values are minus log10 of concentrations stated in mol/L.

Query: Requested field: pIC50. Item: COc1ccc(C(=O)/C=C/c2ccccc2)cc1 [4′MC, 4′methoxy chalcone, reference compound]
Reply: 4.40

###

Experiment: Determination of metabolic stability (liver microsomes)
Type: in vitro ADME, rat
Conditions: 20 μM, 15 min, 37° C.
Method: Samples were incubated for 15 min at 37° C. and the reactions were terminated by addition of equal volumes of acetonitrile. Blank incubations were performed at the same concentration but without addition of microsomes. […] The fraction of compound metabolised during the 15 min of incubation was determined by comparison of blank and microsome-containing samples using a Waters Alliance 2690 separation module and Waters 996 PDA-detector (Waters. […]
PROPERTY_NAME: Metabolic turn-over (rat) in vitro (%)
I only need the number, in %, no unit after it.

Below, 5 molecules whose answers are already recorded.
COc1ccc(Nc2cccnc2)cc1/C=C/C(=O)c1ccccc1CN(C)C [A102] ... 2
COc1ccc(C(=O)/C=C/c2cccc(CNCCN(C)C)c2)cc1 [A010] ... 1
CNCc1cccc(/C=C/C(=O)c2ccc(OC)cc2)c1 [A099] ... 7
COc1ccc(OC)c(/C=C/C(=O)c2ccccc2CN2CCNCC2)c1 [A049] ... 0
CCCCN(CCCC)c1ccc(/C=C/C(=O)c2ccc(OC)c(CN(C)C)c2)cc1 [A110] ... 6

Query: Requested field: Metabolic turn-over (rat) in vitro. Item: C=CC(C)(C)c1cc(/C=C/C(=O)c2ccc(O)cc2)c(OC)cc1O [LicA, Licochalcone A, reference compound]
Reply: 100

Query: Requested field: Metabolic turn-over (rat) in vitro. Item: CCCCN(CCCC)c1ccc(/C=C/C(=O)c2cccc(CN(C)C)c2)cc1 [A019]
Reply: 5

Query: Requested field: Metabolic turn-over (rat) in vitro. Item: COc1ccc(OC)c(/C=C/C(=O)c2ccccc2CN(C)C)c1 [A029]
Reply: 3

###

Attribute: MIC, A: Staphylococcus aureus ATCC29213
System: Staphylococcus aureus ATCC29213
Assay: MIC determination in broth microdilution assay
I only need the number, in µM, no unit after it.

C=CC(C)(C)c1cc(/C=C/C(=O)c2cccc(CN(C)C)c2)c(OC)cc1O ... 4.7

Query: # get_value(readout= MIC, A: Staphylococcus aureus ATCC29213, system= Staphylococcus aureus ATCC29213) for C=CC(C)(C)c1cc(/C=C/C(=O)c2ccc(O)cc2)c(OC)cc1O [LicA, Licochalcone A, reference compound]
Reply: 37.5

###

Tested on: Staphylococcus aureus ATCC29213
Experiment: MIC determination in broth microdilution assay
Attribute: MIC, A: Staphylococcus aureus ATCC29213
I only need the number, in µM, no unit after it.

Below, 7 compounds whose answers are already recorded.
CCCCN(CCCC)c1cccc(/C=C/C(=O)c2ccc(OC)c(CN(C)C)c2)c1 [A129] ... 4.7
CN(C)CCCNCc1cccc(C(=O)/C=C/c2ccc(Cl)cc2Cl)c1 [A022] ... 37.5
CCCCN(CCCC)c1ccc(/C=C/C(=O)c2ccc(CN(C)C)cc2)cc1 [A033] ... 4.7
C=CC(C)(C)c1cc(/C=C/C(=O)c2ccccc2CN2CCN(C)CC2)c(OC)cc1Cl [A083] ... 9.4
CCCCN(CCCC)c1ccc(/C=C/C(=O)c2cccc(CN(C)C)c2)cc1 [A019] ... 9.4
CCCCN(CCCC)c1ccc(/C=C/C(=O)c2ccc(CN3CCN(C)CC3)cc2)cc1 [A025] ... 9.4
CCCCN(CCCC)c1ccc(/C=C/C(=O)c2ccccc2CN(C)C)cc1 [A030] ... 9.4

// moving on: another record for MIC, A: Staphylococcus aureus ATCC29213
Query: Requested field: MIC, A: Staphylococcus aureus ATCC29213. Item: COc1ccc(-c2ccccc2)cc1/C=C/C(=O)c1ccc(CCN(C)C)cc1 [A117]
Reply: 9.4
